Target: human TRPV1 (Homo sapiens)
Sequence (Q8NER1 whole entry): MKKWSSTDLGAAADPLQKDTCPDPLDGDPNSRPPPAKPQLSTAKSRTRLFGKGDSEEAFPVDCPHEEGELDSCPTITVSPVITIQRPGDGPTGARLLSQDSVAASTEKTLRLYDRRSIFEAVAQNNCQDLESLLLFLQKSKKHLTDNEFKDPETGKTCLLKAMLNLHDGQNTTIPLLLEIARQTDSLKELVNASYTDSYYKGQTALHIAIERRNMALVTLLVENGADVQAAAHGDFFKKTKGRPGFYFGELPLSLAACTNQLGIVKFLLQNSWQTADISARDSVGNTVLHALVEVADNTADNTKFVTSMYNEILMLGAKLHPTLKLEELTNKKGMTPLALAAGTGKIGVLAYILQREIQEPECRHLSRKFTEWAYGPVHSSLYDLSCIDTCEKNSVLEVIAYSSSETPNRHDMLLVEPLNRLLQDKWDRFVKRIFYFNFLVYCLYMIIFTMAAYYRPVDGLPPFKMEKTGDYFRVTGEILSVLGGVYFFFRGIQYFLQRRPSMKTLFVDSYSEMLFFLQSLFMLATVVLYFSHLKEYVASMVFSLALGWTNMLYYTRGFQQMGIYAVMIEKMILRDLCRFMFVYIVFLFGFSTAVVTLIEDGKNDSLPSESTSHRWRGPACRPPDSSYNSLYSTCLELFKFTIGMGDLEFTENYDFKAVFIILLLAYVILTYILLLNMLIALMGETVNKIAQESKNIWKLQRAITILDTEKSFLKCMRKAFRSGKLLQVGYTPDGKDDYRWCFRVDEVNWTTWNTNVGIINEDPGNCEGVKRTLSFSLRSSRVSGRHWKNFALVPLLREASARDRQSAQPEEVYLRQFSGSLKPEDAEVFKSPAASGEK
Test: 45Ca2+ uptake assay, antagonism of capsaicin
Please provide measured log10(Ki) for the entries that follow.
Short version: log10 scale, Ki, nM.

Query: GET /values?readout=log10(Ki)&system=human TRPV1 (Homo sapiens)&item= CN(C)C1(Cc2ccccc2)CCN(c2cc(C(F)(F)F)ccc2CNC(=O)Nc2ccc3ccncc3c2)CC1 [compound 45]
Response: 1.75

Query: And the next one, CN(C)C1(Cc2ccccc2)CCN(c2cc(C(F)(F)F)ccc2CNC(=O)NCc2ccc(NS(C)(=O)=O)c(F)c2)CC1 [compound 17] ?
Response: 1.93

Query: And the next one, CN(C)C1(Cc2ccccc2)CCN(c2cc(C(F)(F)F)ccc2CNC(=O)Nc2ccc(CNS(C)(=O)=O)c(F)c2)CC1 [compound 15] ?
Response: 1.40

Query: And the next one, CN(C)C1(Cc2ccccc2)CCN(c2cc(C(F)(F)F)ccc2CNC(=O)Nc2cccc3cnccc23)CC1 [compound 48] ?
Response: 0.94

Query: And the next one, CN(C)C1(Cc2ccccc2)CCN(c2cc(C(F)(F)F)ccc2CNC(=O)Nc2cccc3[nH]c(=O)ccc23)CC1 [compound 35] ?
Response: 1.49

Query: And the next one, CN(C)C1(Cc2ccccc2)CCN(c2cc(C(F)(F)F)ccc2CNC(=O)Nc2ccc3c(c2)OCC3)CC1 [compound 33] ?
Response: 1.50

Query: And the next one, CN(C)C1(Cc2ccccc2)CCN(c2cc(C(F)(F)F)ccc2CNC(=O)Nc2ccc3cnccc3c2)CC1 [compound 46] ?
Response: 2.19

Query: And the next one, CC(C(=O)NCc1ccc(C(F)(F)F)cc1N1CCC(Cc2ccccc2)(N(C)C)CC1)c1ccc(NS(C)(=O)=O)c(F)c1 (stereo not drawn) [compound 11] ?
Response: 0.91

Query: And the next one, CN(C)C1(Cc2ccccc2)CCN(c2cc(C(F)(F)F)ccc2CNC(=O)Nc2ccc(CO)c(F)c2)CC1 [compound 23] ?
Response: 1.91

Query: And the next one, CN(C)C1(Cc2ccccc2)CCN(c2cc(C(F)(F)F)ccc2CNC(=O)Nc2ccc3cccnc3c2)CC1 [compound 44] ?
Response: 1.62

Query: And the next one, CC1CCN(c2nc(C(F)(F)F)ccc2CNC(=O)[C@@H](C)c2ccc(NS(C)(=O)=O)c(F)c2)CC1 [compound 1, reference compound] ?
Response: 0.35

Query: And the next one, CN(C)C1(Cc2ccccc2)CCN(c2cc(C(F)(F)F)ccc2CNC(=O)Nc2cccc3ccncc23)CC1 [compound 47] ?
Response: 1.27
